Values were extracted from ChEMBL document CHEMBL1201862.

test system: A549; test: NCI tumour cell line growth inhibition, 48 h
Active and inactive are the calls of the source. No stated cut-off is given here; in the data, active = GI50 up to about 1.1 µM and inactive = higher.
Endpoint: GI50

>>> print(df.to_string())
                                   molecule  endpoint      recorded_result
0                  COC(OC)(c1ccccc1)C(Br)Br      GI50  > 100 µM (inactive)
1  COc1ccc(/C(CC2OC(=O)c3ccccc32)=N\NC(=O)C[N+](C)(C)C)cc1 (stereo not given)      GI50     36 µM (inactive)
2  Cc1c2c(OCC(O)CN3CCN(c4ccccc4)CC3)nn(C)c(=O)c2c(C)n1-c1ccccc1 (stereo not given)      GI50   24.7 µM (inactive)
3  O=C1C=C(Nc2ccc(Cl)cc2C(=O)c2ccccc2)c2ccccc2C1=O      GI50  > 100 µM (inactive)
4      O=C(N/N=C/c1cc(Cl)cc(Cl)c1O)c1ccncc1      GI50  > 100 µM (inactive)
5  O=C1C(c2ccccc2)=C(c2ccccc2)C(c2ccc(-c3ccc(C4=C(c5ccccc5)C(=O)C(c5ccccc5)=C4c4ccccc4)cc3)cc2)=C1c1ccccc1      GI50  > 100 µM (inactive)
6          O=S(=O)(SC1=NCCN1)c1cccc2ccccc12      GI50   22.8 µM (inactive)
7    O=C1c2ccccc2C(=O)c2sc(Nc3ccccc3Cl)nc21      GI50   19.8 µM (inactive)
8  Cn1c2ccccc2n2c(=O)c3cc([N+](=O)[O-])ccc3c(C#N)c12      GI50  > 100 µM (inactive)
9  Cc1ccc(C2=Nn3c(nc4sc(C)c(C)c4c3=O)SC2)cc1      GI50  > 100 µM (inactive)

---

test system: BT-549; test: NCI tumour cell line growth inhibition, 48 h
Activity calls are given as the source filed them. Rule as the data show it: active = GI50 up to about 1.1 µM and inactive = higher.
Possible outcomes: YES for active, NO for inactive

>>> df
                                   compound  class_label
0  CC(C)(C)OC(=O)NC(Cc1ccc(O)cn1)C(N)=O (stereo unspecified)           NO
1  CN(C)CCCNc1c2ccccc2nc2cccc([N+](=O)[O-])c12          YES
2  COc1cc2c(cc1C1COc3cc4occc4cc3C1=O)OCO2 (stereo unspecified)           NO
3  CC(C)(C)c1ccc2c(c1)OCc1n[nH]c(n1)COc1cc(C(C)(C)C)ccc1OCCOCCO2           NO
4     O=C(/C=C/c1ccccc1)c1ccccc1 [CHALCONE]           NO
5  CCC(C)[C@@H](NC1=C(Cl)C(=O)c2c(O)ccc(O)c2C1=O)C(=O)OC (stereo partly specified)           NO

---

test system: MOLT-4; test: NCI tumour cell line growth inhibition, 48 h
Active and inactive are the calls of the source. Rule as the data show it: active = GI50 up to about 1.1 µM and inactive = higher.
Labels: active, inactive

>>> print(df.to_string())
                                    molecule  target_desc  class_label
 0  C[C@]12CCC(=O)C=C1CC[C@@H]1C2CC[C@]2(C)Nc3[nH]ncc3CC12 (stereo partly specified)       MOLT-4     inactive
 1  ON[C@H]1C[C@@H](n2cnc3c(NC4CC4)ncnc32)[C@H](O)[C@@H]1O       MOLT-4     inactive
 2  CC(C)c1c(O)ccc2c1CCC1C(C)(C)CCCC21C (stereo unspecified)       MOLT-4     inactive
 3  COc1cc(NP(=O)(Oc2ccccc2)Oc2ccccc2)ccc1Nc1c2ccccc2nc2c1[nH]c1ccccc12       MOLT-4       active
 4             COc1ccccc1CNCc1nc2ccccc2[nH]1       MOLT-4     inactive
 5  C/C(CC(=O)Nc1cc(Cl)c(Cl)cc1Cl)=N\NC(N)=O       MOLT-4     inactive
 6  C=CC[C@H]1O[Si](C(C)(C)C)(C(C)(C)C)[C@H](C)[C@H]1C       MOLT-4     inactive
 7          C=C(O)c1ccccc1C#Cc1ccccc1C(=O)OC       MOLT-4     inactive
 8  CC[n+]1c(-c2ccccc2)c2cc(N)ccc2c2ccc(N)cc21       MOLT-4     inactive
 9                        C#Cc1ccccc1C(=O)OC       MOLT-4     inactive
10                    COc1ccc2c(c1OC)C(=O)C2       MOLT-4     inactive
